TARGET_OR_SYSTEM: CFTR-mediated chloride transport in human intestinal epithelial enteroid cells (Homo sapiens)
Sequence (P13569 with tags, fused parts or gaps DEL508-508): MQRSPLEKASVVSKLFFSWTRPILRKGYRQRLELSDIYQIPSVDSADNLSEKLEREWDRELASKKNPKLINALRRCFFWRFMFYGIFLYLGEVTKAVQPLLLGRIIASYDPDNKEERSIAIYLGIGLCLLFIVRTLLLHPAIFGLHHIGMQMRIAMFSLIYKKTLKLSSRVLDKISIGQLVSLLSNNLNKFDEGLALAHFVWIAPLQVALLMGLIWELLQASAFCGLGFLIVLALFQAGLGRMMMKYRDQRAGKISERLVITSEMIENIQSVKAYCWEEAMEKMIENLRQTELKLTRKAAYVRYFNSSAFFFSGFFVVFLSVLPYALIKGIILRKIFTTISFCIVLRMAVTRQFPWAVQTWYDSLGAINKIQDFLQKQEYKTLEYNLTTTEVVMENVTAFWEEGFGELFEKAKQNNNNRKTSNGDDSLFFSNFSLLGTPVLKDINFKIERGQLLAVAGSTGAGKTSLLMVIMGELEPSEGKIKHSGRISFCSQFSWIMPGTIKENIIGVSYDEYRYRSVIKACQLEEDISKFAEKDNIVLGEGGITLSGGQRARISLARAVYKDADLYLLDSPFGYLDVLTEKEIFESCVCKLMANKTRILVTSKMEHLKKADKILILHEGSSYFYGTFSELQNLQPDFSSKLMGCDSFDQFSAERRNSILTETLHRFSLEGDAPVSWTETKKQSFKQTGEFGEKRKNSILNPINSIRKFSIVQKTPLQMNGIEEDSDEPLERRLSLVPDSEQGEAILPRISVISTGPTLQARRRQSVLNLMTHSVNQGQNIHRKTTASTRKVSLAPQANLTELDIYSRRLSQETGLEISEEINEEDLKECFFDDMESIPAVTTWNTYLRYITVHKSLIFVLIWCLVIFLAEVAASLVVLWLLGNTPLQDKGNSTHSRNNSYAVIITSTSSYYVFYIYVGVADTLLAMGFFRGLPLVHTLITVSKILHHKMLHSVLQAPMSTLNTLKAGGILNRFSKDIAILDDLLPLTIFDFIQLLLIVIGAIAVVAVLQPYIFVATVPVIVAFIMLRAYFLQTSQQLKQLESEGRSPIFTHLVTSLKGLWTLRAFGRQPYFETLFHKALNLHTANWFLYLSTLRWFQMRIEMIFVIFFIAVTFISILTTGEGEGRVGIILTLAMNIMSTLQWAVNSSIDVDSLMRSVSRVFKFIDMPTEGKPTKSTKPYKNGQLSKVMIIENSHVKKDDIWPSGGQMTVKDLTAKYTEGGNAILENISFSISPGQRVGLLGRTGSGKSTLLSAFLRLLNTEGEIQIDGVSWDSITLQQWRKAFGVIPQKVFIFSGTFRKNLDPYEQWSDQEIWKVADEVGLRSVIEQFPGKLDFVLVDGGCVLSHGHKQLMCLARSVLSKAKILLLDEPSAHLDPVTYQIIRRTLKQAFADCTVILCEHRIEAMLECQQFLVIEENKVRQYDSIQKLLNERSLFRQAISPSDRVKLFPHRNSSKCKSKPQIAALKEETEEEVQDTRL
METHOD: Membrane potential dye, Enteroid Assay A
Format: cell-based
CONDITIONS_USED: percentage of chloride transport of triple combination control (3 μM N-[(6-amino-2-pyridyl)sulfonyl]-6-(3-fluoro-5-isobutoxy-phenyl)-2-[(4S)-2,2,4-trimethylpyrrolidin-1-yl]pyridine-3-carboxamide based)

>  <COMPOUND>
Cc1cccc(C)c1-c1cc2nc(n1)NS(=O)(=O)c1cccc(c1)C(=O)N1CCN(Cc3ccccc3)C(CO2)C1 (stereo not drawn) [Compound 178]

>  <Ent. A Max Activity (%)>
++ (++ is 30-60%)

$$$$
>  <COMPOUND>
CNc1ccc(CN2CCN3C(=O)c4cccc(c4)S(=O)(=O)Nc4nc(cc(-c5c(C)cccc5C)n4)OC[C@H]3C2)cn1 [Compound 265]

>  <Ent. A Max Activity (%)>
++ (++ is 30-60%)

$$$$
>  <COMPOUND>
Cc1cccc(C)c1-c1cc2nc(n1)NS(=O)(=O)c1cccc(c1)C(=O)N1CCN(C(=O)NC34CC5CC(CC(C5)C3)C4)C[C@@H]1CO2 [Compound 290]

>  <Ent. A Max Activity (%)>
++ (++ is 30-60%)

$$$$
>  <COMPOUND>
Cc1cccc(C)c1-c1cc2nc(n1)NS(=O)(=O)c1cccc(c1)C(=O)N1CCN(Cc3nccs3)CC(C1)O2 (stereo not drawn) [Compound 52]

>  <Ent. A Max Activity (%)>
++ (++ is 30-60%)

$$$$
>  <COMPOUND>
Cc1cccc(C)c1-c1cc2nc(n1)NS(=O)(=O)c1cccc(c1)C(=O)N1CCN(Cc3sccc3Oc3ccccc3)CC(C1)O2 (stereo not drawn) [Compound 61]

>  <Ent. A Max Activity (%)>
+++ (+++ is >60%)

$$$$
>  <COMPOUND>
Cc1cccc(C)c1-c1cc2nc(n1)NS(=O)(=O)c1cccc(c1)C(=O)N1CCN(CCC(C)(C)C)CC(C1)O2 (stereo not drawn) [Compound 45]

>  <Ent. A Max Activity (%)>
+++ (+++ is >60%)

$$$$
>  <COMPOUND>
Cc1cccc(C)c1-c1cc2nc(n1)NS(=O)(=O)c1cccc(c1)C(=O)N1CCN(CC3CCCCC3)CC1CO2 (stereo not drawn) [Compound 309]

>  <Ent. A Max Activity (%)>
++ (++ is 30-60%)

$$$$
>  <COMPOUND>
Cc1cccc(C)c1-c1cc2nc(n1)NS(=O)(=O)c1cnn(c1)CC(=O)N1Cc3ccccc3C(C1)O2 (stereo not drawn) [Compound 347]

>  <Ent. A Max Activity (%)>
+ (+ is <300%)

$$$$
>  <COMPOUND>
Cc1cccc(C)c1-c1cc2nc(n1)NS(=O)(=O)c1cccc(c1)C(=O)N1CCN(CCC(C)(C)C)CC1CO2 (stereo not drawn) [Compound 310]

>  <Ent. A Max Activity (%)>
++ (++ is 30-60%)

$$$$
>  <COMPOUND>
Cc1cccc(C)c1-c1cc2nc(n1)NS(=O)(=O)c1cccc(c1)C(=O)N1CCCC(C1)O2 (stereo not drawn) [Compound 326]

>  <Ent. A Max Activity (%)>
+ (+ is <300%)

$$$$
>  <COMPOUND>
Cc1cccc(C)c1-c1cc2nc(n1)NS(=O)(=O)c1cccc(c1)C(=O)N1CCN(C)CC(C1)O2 (stereo not drawn) [Compound 63]

>  <Ent. A Max Activity (%)>
+++ (+++ is >60%)

$$$$
>  <COMPOUND>
Cc1cccc(C)c1-c1cc2nc(n1)NS(=O)(=O)c1cccc(c1)C(=O)N1CCc3ccccc3C(C1)O2 (stereo not drawn) [Compound 220]

>  <Ent. A Max Activity (%)>
+++ (+++ is >60%)

$$$$
>  <COMPOUND>
CC(=O)NCCN1CCN2C(=O)c3cccc(c3)S(=O)(=O)Nc3nc(cc(-c4c(C)cccc4C)n3)OC[C@H]2C1 [Compound 294]

>  <Ent. A Max Activity (%)>
++ (++ is 30-60%)

$$$$
>  <COMPOUND>
Cc1cccc(C)c1-c1cc2nc(n1)NS(=O)(=O)c1cccc(c1)C(=O)N1CCN(CCC3CCOCC3)CC(C1)O2 (stereo not drawn) [Compound 60]

>  <Ent. A Max Activity (%)>
+++ (+++ is >60%)

$$$$
>  <COMPOUND>
Cc1cccc(C)c1-c1cc2nc(n1)NS(=O)(=O)c1cccc(c1)C(=O)N1CC(NC(=O)OC(C)(C)C)CC(C1)O2 (stereo not drawn) [Compound 320]

>  <Ent. A Max Activity (%)>
++ (++ is 30-60%)

$$$$
>  <COMPOUND>
Cc1cccc(C)c1-c1cc2nc(n1)NS(=O)(=O)c1cccc(c1)C(=O)N1CCC[C@H](C1)O2 [Compound 336]

>  <Ent. A Max Activity (%)>
+ (+ is <300%)

$$$$
>  <COMPOUND>
Cc1cccc(C)c1-c1cc2nc(n1)NS(=O)(=O)c1cccc(c1)C(=O)N1CCN(Cc3ccncc3)C[C@@H]1CO2 [Compound 280]

>  <Ent. A Max Activity (%)>
++ (++ is 30-60%)

$$$$
>  <COMPOUND>
Cc1cccc(C)c1-c1cc2nc(n1)NS(=O)(=O)c1cccc(c1)C(=O)N1CCN(C(=O)CCN3CCCC3)CC1CO2 (stereo not drawn) [Compound 308]

>  <Ent. A Max Activity (%)>
+ (+ is <300%)

$$$$
>  <COMPOUND>
Cc1cccc(C)c1-c1cc2nc(n1)NS(=O)(=O)c1cccc(c1)C(=O)N1CCC3(CC3)C(C1)O2 (stereo not drawn) [Compound 370]

>  <Ent. A Max Activity (%)>
+++ (+++ is >60%)

$$$$
>  <COMPOUND>
Cc1cccc(C)c1-c1cc2nc(n1)NS(=O)(=O)c1cccc(c1)C(=O)N1CCN(Cc3ccccc3O)C[C@@H]1CO2 [Compound 271]

>  <Ent. A Max Activity (%)>
+++ (+++ is >60%)

$$$$
>  <COMPOUND>
Cc1cccc(C)c1-c1cc2nc(n1)NS(=O)(=O)c1cccc(c1)C(=O)N1CCN(CCc3ccccc3)CC1CO2 (stereo not drawn) [Compound 311]

>  <Ent. A Max Activity (%)>
++ (++ is 30-60%)

$$$$
>  <COMPOUND>
Cc1cccc(C)c1-c1cc2nc(n1)NS(=O)(=O)c1cccc(c1)C(=O)N1CCN(CC3CC3)C[C@@H]1CO2 [Compound 262]

>  <Ent. A Max Activity (%)>
+++ (+++ is >60%)

$$$$
>  <COMPOUND>
Cc1cccc(C)c1-c1cc2nc(n1)NS(=O)(=O)c1cccc(c1)C(=O)N1CCN(CC(C)C)C[C@@H]1CO2 [Compound 269]

>  <Ent. A Max Activity (%)>
+++ (+++ is >60%)

$$$$
>  <COMPOUND>
Cc1cccc(C)c1-c1cc2nc(n1)NS(=O)(=O)c1cccc(c1)C(=O)N1CCN(Cc3cccc(C#N)c3)C[C@@H]1CO2 [Compound 267]

>  <Ent. A Max Activity (%)>
+++ (+++ is >60%)

$$$$
>  <COMPOUND>
Cc1cccc(C)c1-c1cc2nc(n1)NS(=O)(=O)c1cccc(c1)C(=O)N1CCN(CCc3ccccc3)C[C@@H]1CO2 [Compound 299]

>  <Ent. A Max Activity (%)>
++ (++ is 30-60%)

$$$$
>  <COMPOUND>
Cc1cccc(C)c1-c1cc2nc(n1)NS(=O)(=O)c1cccc(c1)C(=O)N1CC(CCC1c1ccccc1)O2 (single isomer, unassigned) [Compound 225]

>  <Ent. A Max Activity (%)>
++ (++ is 30-60%)

$$$$
>  <COMPOUND>
Cc1cccc(C)c1-c1cc2nc(n1)NS(=O)(=O)c1cccc(c1)CCC(=O)N1CCC(CC1)O2 [Compound 352]

>  <Ent. A Max Activity (%)>
+ (+ is <300%)

$$$$
